measurement target: T1, human chemokine (C-C motif) receptor 8 (CCR8) (human, UniProt P51685 1-355)
T1 construct: On human peripheral blood lymphocytes / PBMC (native) or on human CCR8 GFP-transfected Ba/F3 cells; also called hCCR8; human CCR8
T1 sequence (P51685 whole entry): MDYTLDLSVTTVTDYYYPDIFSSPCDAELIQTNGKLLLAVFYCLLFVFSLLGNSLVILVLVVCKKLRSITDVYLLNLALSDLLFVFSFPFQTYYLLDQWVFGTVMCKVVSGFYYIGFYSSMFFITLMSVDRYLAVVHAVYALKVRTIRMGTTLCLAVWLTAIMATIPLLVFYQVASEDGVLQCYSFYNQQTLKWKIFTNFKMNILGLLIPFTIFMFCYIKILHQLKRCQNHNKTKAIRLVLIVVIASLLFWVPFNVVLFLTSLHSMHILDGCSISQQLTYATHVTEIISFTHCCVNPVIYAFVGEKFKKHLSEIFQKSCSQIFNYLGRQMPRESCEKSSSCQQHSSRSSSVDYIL
measurement protocol: flow cytometry blocking, PBMC CCR8+ CD4+ cells; competitor PE-AB1 (its MFI is read)
Description: For blocking studies, 100 μL of the cell suspension were incubated with 10 μg purified isotype control, AB1, AB2, AB3, AB4, AB5, AB8, AB9, AB10, AB11, AB12, AB13, AB14, AB15, and Commercial ABI antibodies, or isotype control, as blocking agents. […]
Simple rule here: % Blocking less than 40% is Condition met, otherwise Condition not met.

| binder | category label |
| --- | --- |
| AB4 (antibody, V domains shown, Hybridoma monoclonal; also called antibody 4; clone 4) VH: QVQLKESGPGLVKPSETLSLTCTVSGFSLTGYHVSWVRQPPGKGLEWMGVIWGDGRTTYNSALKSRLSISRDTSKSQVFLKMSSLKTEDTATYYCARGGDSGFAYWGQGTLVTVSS VL: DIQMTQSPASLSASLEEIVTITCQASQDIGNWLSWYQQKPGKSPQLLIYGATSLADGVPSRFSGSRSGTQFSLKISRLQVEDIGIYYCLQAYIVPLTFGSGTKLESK | Condition not met |
| AB1 (antibody, V domains shown, Hybridoma monoclonal (mice or rats immunised); Used purified and PE-conjugated; also called antibody 1; clone 1) VH: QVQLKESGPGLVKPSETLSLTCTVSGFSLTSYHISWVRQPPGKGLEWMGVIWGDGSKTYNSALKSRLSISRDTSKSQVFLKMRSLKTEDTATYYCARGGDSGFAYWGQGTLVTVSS VL: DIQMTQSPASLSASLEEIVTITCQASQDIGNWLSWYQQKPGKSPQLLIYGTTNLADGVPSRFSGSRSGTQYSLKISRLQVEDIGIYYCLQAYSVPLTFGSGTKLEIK | Condition met |
| AB3 (antibody, V domains shown, Hybridoma monoclonal; also called antibody 3; clone 3) VH: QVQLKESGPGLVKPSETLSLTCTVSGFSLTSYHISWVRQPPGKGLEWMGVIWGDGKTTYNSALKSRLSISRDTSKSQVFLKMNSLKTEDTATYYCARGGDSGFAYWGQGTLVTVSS VL: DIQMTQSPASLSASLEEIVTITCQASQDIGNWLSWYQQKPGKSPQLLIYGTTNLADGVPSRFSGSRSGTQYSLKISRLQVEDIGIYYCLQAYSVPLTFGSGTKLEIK | Condition met |
| AB10 (antibody, V domains shown, Hybridoma monoclonal; also called antibody 10; clone 10) VH: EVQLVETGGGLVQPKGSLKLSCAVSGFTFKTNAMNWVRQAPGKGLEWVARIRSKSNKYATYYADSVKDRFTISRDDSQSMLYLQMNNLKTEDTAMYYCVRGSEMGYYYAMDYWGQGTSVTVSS VL: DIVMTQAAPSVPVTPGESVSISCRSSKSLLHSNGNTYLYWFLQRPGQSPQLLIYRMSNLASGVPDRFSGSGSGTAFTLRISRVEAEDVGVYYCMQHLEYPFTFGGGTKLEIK | Condition met |
